Just for reference, PubChem BioAssay (EPA / NIEHS) is where these values come from.

# test_system: Paired box protein Pax-6 (Homo sapiens) (UniProt P26367)
# Sequence (P26367 whole entry, looked up): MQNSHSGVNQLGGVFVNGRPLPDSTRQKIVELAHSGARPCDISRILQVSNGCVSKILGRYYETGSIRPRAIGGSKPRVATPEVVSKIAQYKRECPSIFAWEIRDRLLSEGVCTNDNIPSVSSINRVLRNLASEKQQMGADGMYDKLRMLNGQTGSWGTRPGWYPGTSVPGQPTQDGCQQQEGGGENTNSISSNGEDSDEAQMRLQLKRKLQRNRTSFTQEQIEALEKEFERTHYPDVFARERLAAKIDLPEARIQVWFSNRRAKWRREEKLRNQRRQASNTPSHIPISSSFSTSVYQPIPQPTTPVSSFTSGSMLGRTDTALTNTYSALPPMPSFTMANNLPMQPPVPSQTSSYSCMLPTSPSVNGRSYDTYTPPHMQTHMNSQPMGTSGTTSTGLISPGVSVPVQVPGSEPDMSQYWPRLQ
# assay_overview: ATG_Pax6_CIS: Attagene CIS-FACTORIAL HepG2 Assay for human Paired Box 6 (PAX6) (AID 2282956)
# condition_notes: HepG2 CIS-FACTORIAL PAX6 reporter transcription, RNA readout; actives raise or lower the signal
Activity calls are given as the source filed them. The calls were made as follows: active = hit-call score of the fitted dose curve at least 0.9, where 1 is the maximum; inactive = score below 0.9.
Give your call using only these classes: active, inactive

smiles_repr	group
COc1ccc(S(=O)(=O)N2C(=O)[C@@](c3ccccc3OC)(N3C[C@H](O)C[C@H]3C(=O)N(C)C)c3cc(Cl)ccc32)c(OC)c1	active
FC(F)(F)C(F)(F)C(F)(F)C(F)(F)C(F)(F)C(F)(F)CCI	inactive
OC[C@@H](O)[C@@H](O)[C@H](O)[C@H](O)CO	inactive
CCCCCCOCCO	inactive
CCCCCCCC=O	inactive
CC(C)(C)c1cc(O)c(C(C)(C)C)cc1O	active

Task: // return assay outcome for NC(=O)Cn1c(=O)cc(CCN2CCN(c3nccc4sccc34)CC2)c2ccc(F)cc21
Output: inactive

Task: // return assay outcome for COc1cccc2c1C(=O)c1c(O)c3c(c(O)c1C2=O)C[C@@](O)(C(=O)CO)C[C@@H]3O[C@H]1C[C@H](N)[C@H](O)[C@H](C)O1
Output: inactive

Task: // return assay outcome for COC(=O)c1ccc(O)cc1
Output: inactive

Task: // return assay outcome for CC1=C(/C=C/C(C)=C/C=C/C(C)=C/CO)C(C)(C)CCC1
Output: active

Task: // return assay outcome for C1CCC(SSC2CCCCC2)CC1
Output: inactive
